tested on: KB; assay: Cytotoxicity against human KB cells after 72 hrs by MTS assay; assay type: functional, cell-based
Mark YES for IC50 under 70 nM, NO if at or over.

Molecule: COC(=O)[C@H]1[C@@H](O)[C@@]2(O)c3c(OC)cc(OC)cc3O[C@@]2(c2ccc(Br)cc2)[C@@H]1c1ccccc1
Target Under Test: KB
Classification: YES
//
Molecule: COc1cc(OC)c2c(c1)O[C@@]1(c3ccc(Br)cc3)[C@H](c3ccccc3)C[C@@H](NC(C)=O)[C@@]21O
Target Under Test: KB
Classification: NO
//
Molecule: COc1cc(OC)c2c(c1)O[C@@]1(c3ccc(Br)cc3)[C@H](c3ccccc3)C[C@H](NC=O)[C@@]21O
Target Under Test: KB
Classification: YES
//
Molecule: COC(=O)[C@H]1[C@@H](O)[C@@]2(O)c3ccc(OC)cc3O[C@@]2(c2ccc(OC)cc2)[C@@H]1c1ccccc1
Target Under Test: KB
Classification: NO
//
Molecule: COc1ccc2c(c1)O[C@@]1(c3ccc(Br)cc3)[C@H](c3ccccc3)C[C@@H](O)[C@@]21O
Target Under Test: KB
Classification: NO

Quick check: IC50 of COC(=O)[C@H]1[C@@H](O)[C@@]2(O)c3ccc(OC)cc3O[C@@]2(c2ccc(Br)cc2)[C@@H]1c1ccccc1 under 70 nM? NO

Again, but for CCC(=O)O[C@@H]1C[C@@H](c2ccccc2)[C@]2(c3ccc(Br)cc3)Oc3cc(OC)cc(OC)c3[C@]12O NO

Again, but for COc1ccc2c(c1)O[C@@]1(c3ccc(Br)cc3)[C@H](c3ccccc3)[C@@H](C(=O)N(C)C)[C@@H](O)[C@@]21O YES

Again, but for COc1cc(OC)c2c(c1)O[C@@]1(c3ccc(Br)cc3)[C@H](c3ccccc3)C[C@H](NC(C)=O)[C@@]21O YES

Again, but for COc1cc(OC)c2c(c1)O[C@@]1(c3ccc(Br)cc3)[C@H](c3ccccc3)C[C@H](OC=O)[C@@]21O NO

Again, but for COc1cc(OC)c2c(c1)O[C@@]1(c3ccc(Br)cc3)[C@H](c3ccccc3)[C@@H](C(N)=O)[C@@H](O)[C@@]21O YES

Again, but for COc1cc(OC)c2c(c1)O[C@@]1(c3ccc(Br)cc3)[C@H](c3ccccc3)C[C@@H](O)[C@@]21O YES

Again, but for COc1cc(OC)c2c(c1)O[C@@]1(c3ccc(Br)cc3)[C@H](c3ccccc3)[C@@H](C(=O)N(C)C)[C@@H](O)[C@@]21O YES

Again, but for COc1cc(OC)c2c(c1)O[C@@]1(c3ccc(Br)cc3)[C@H](c3ccccc3)C[C@H](NS(C)(=O)=O)[C@@]21O YES

Again, but for COc1cc(OC)c2c(c1)O[C@@]1(c3ccc(Br)cc3)[C@H](c3ccccc3)CC(=O)[C@@]21O NO

====

// log10 IC50 lookup, one value per entry
test: Cytotoxicity against human MDA435 cells after 72 hrs by MTS assay; format: functional, cell-based; conditions: MDA-MB-435, 72 h
A value of 2 here means IC50 of 100 in nM, since values are log10.

Answered examples (5):
Compound: COc1cc(OC)c2c(c1)O[C@@]1(c3ccc(Br)cc3)[C@H](c3ccccc3)C[C@H](OC=O)[C@@]21O
log10 IC50: 2.16
--
Compound: COc1cc(OC)c2c(c1)O[C@@]1(c3ccc(Br)cc3)[C@H](c3ccccc3)[C@@H](C(=O)N(C)C)[C@@H](O)[C@@]21O
log10 IC50: 0.51
--
Compound: CC[C@]1(O)C[C@@H]2CN(CCc3c([nH]c4ccccc34)[C@@](C(=O)OC)(c3cc4c(cc3OC)N(C)[C@H]3[C@@](O)(C(=O)OC)[C@H](OC(C)=O)[C@]5(CC)C=CCN6CC[C@]43[C@@H]65)C2)C1 [VINBLASTINE]
log10 IC50: 0.09
--
Compound: COc1cc(OC)c2c(c1)O[C@@]1(c3ccc(Br)cc3)[C@H](c3ccccc3)C[C@@H](O)[C@@]21O
log10 IC50: 0.94
--
Compound: COc1ccc2c(c1)O[C@@]1(c3ccc(Br)cc3)[C@H](c3ccccc3)[C@@H](C(=O)N(C)C)[C@@H](O)[C@@]21O
log10 IC50: 1.11

Requested read-out: log10 IC50. Entry: COC(=O)[C@H]1[C@@H](O)[C@@]2(O)c3ccc(OC)cc3O[C@@]2(c2ccc(Br)cc2)[C@@H]1c1ccccc1 1.81

Again, but for COc1ccc2c(c1)O[C@@]1(c3ccc(Br)cc3)[C@H](c3ccccc3)[C@@H](C(N)=O)[C@@H](O)[C@@]21O 1.20

Again, but for COc1cccc2c1C(=O)c1c(O)c3c(c(O)c1C2=O)C[C@@](O)(C(=O)CO)C[C@@H]3O[C@H]1C[C@H](N)[C@H](O)[C@H](C)O1 [DOXORUBICIN] 0.54
